test: Human PK in healthy Japanese and Chinese subjects, Study M13-543; assay type: in vivo; settings: human, plasma, oral, 18 mg, Chinese, 18 mg BID, Day 14; read-out: AUC12
recorded-metric: AUC (ng·h/mL)
Answer in ng·h/mL, number only, no unit symbol.

Req: Respond only with AUC recorded for CC[C@@H]1CN(C(=O)NCC(F)(F)F)C[C@@H]1c1cnc2cnc3[nH]ccc3n12
Resp: 466

====

assay: Human PK in healthy Japanese and Chinese subjects, Study M13-543; format: in vivo; details: human, plasma, oral, 18 mg, Japanese, 18 mg BID, Day 1, mean (% CV); read-out: AUC12
recorded-metric: AUC
Please give the number followed by its unit.

Req: Read off the recorded AUC for CC[C@@H]1CN(C(=O)NCC(F)(F)F)C[C@@H]1c1cnc2cnc3[nH]ccc3n12 [Compound 1]
Resp: 440 ng·h/mL

====

test: Pharmacokinetics in rat; type: in vivo; details: female, Sprague-Dawley, rat, plasma, po, 100 mg/kg/day, rat F, oral 100 mg/kg/day, Day 1, mean (SD)
recorded-metric: Cmax

Req: Tell me its Cmax given CC[C@@H]1CN(C(=O)NCC(F)(F)F)C[C@@H]1c1cnc2cnc3[nH]ccc3n12 as the entry.
Resp: 13500 ng/mL

====

assay: Pharmacokinetics in rat; type: in vivo; details: plasma; rat, IV 0.3 mg/kg single dose
recorded-metric: half-life (h)
Write it as a number; the unit h goes unstated.

Req: Please report the measured half-life for CC[C@@H]1CN(C(=O)NCC(F)(F)F)C[C@@H]1c1cnc2cnc3[nH]ccc3n12
Resp: 1

====

assay: Human PK, single ascending dose Study M13-401; assay type: in vivo; conditions: human, in vivo; single oral 24 mg, mean ± SD
recorded-metric: AUC(0-t) (ng·h/mL)
Reply numerically in ng·h/mL, unit not repeated.

Req: Please report AUC(0-t) for the following molecule: CC[C@@H]1CN(C(=O)NCC(F)(F)F)C[C@@H]1c1cnc2cnc3[nH]ccc3n12
Resp: 612

====

assay: Pharmacokinetics in monkey; type: in vivo; settings: plasma, IV 0.1 mg/kg single dose, mean (SD)
recorded-metric: AUC(0-inf)
Number first, unit second: that is the form wanted.

Req: For the molecule CC[C@@H]1CN(C(=O)NCC(F)(F)F)C[C@@H]1c1cnc2cnc3[nH]ccc3n12 , give its measured AUC(0-inf) value.
Resp: 72 ng·h/mL

====

test: Human PK, multiple ascending dose Study M13-845 Substudy 1; type: in vivo; settings: human, in vivo, oral, 3 mg, 3 mg BID, Day 14, mean; read-out: AUC12
recorded-metric: AUC (ng·h/mL)
Field format: number, assumed ng·h/mL, no unit text.

Req: Give reported AUC value for CC[C@@H]1CN(C(=O)NCC(F)(F)F)C[C@@H]1c1cnc2cnc3[nH]ccc3n12 [Compound 1]
Resp: 78.3

====

target: Rock2 (Homo sapiens, UniProt O75116)
Sequence (O75116 whole entry, species assumed): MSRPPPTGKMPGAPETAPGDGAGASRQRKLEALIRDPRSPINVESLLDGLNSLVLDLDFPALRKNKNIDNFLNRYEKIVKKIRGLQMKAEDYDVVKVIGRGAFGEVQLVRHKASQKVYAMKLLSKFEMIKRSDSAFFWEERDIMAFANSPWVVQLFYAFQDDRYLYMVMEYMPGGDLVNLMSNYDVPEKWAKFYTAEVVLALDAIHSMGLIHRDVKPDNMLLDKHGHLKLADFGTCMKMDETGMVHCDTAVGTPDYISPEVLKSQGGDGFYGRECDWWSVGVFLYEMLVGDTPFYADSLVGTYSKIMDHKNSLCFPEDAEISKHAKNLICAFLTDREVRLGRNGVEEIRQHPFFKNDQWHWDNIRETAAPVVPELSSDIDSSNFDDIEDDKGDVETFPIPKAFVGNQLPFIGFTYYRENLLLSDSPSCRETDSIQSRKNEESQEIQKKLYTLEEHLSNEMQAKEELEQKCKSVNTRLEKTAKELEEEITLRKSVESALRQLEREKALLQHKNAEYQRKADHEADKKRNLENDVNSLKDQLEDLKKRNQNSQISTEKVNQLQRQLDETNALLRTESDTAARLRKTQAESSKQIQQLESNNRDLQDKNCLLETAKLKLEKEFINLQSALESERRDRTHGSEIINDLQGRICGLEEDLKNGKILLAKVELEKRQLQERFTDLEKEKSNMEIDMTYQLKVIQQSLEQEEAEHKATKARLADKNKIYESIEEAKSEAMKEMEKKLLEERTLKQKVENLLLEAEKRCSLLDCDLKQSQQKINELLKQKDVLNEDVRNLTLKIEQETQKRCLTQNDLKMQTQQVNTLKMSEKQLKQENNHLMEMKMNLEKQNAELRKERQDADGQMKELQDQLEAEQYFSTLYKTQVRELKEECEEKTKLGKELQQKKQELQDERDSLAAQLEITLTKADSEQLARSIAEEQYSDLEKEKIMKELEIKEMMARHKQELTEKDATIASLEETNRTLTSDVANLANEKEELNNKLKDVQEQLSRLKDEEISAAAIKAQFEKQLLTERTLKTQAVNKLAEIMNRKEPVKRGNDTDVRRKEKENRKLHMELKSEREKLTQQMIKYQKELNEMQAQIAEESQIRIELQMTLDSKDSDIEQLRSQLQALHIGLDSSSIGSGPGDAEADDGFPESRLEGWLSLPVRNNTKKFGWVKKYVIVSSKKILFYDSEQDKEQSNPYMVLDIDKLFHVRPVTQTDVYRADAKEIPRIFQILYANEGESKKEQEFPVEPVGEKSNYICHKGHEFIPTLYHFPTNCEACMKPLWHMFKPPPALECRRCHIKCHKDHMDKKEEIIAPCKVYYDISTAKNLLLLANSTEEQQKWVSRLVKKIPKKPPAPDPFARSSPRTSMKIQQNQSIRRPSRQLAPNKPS
recorded-metric: IC50 (µM)
// return numeric value only (unit: µM, not printed)

Req: State recorded IC50 with Rock2 (Homo sapiens, UniProt O75116), entry CC[C@@H]1CN(C(=O)NCC(F)(F)F)C[C@@H]1c1cnc2cnc3[nH]ccc3n12 , no comment.
Resp: 0.43

====

assay: Human PK in healthy Japanese and Chinese subjects, Study M13-543; format: in vivo; conditions: human, plasma, oral, 18 mg, Chinese, 18 mg BID, Day 14; read-out: Ctrough
recorded-metric: concentration at 14 day (ng/mL)
Number in ng/mL, nothing else.

Req: Annotate the molecule CC[C@@H]1CN(C(=O)NCC(F)(F)F)C[C@@H]1c1cnc2cnc3[nH]ccc3n12 with its measured concentration at 14 day.
Resp: 7.7

====

experiment: Metabolic stability in hepatocytes, human; format: in vitro ADME; details: read-out: intrinsic clearance in hepatocytes (converted)
recorded-metric: CLint scaled at 1 μM (mL/min/kg)
Reply numerically in mL/min/kg, unit not repeated.

Req: Tell us which CLint scaled at 1 μM value is on record for CC[C@@H]1CN(C(=O)NCC(F)(F)F)C[C@@H]1c1cnc2cnc3[nH]ccc3n12
Resp: 6.1

====

test: Human PK in healthy Japanese and Chinese subjects, Study M13-543; format: in vivo; settings: human, plasma, oral; Japanese, single dose 24 mg, mean (% CV)
recorded-metric: AUC(0-t) (ng·h/mL)
Give the number; ng·h/mL is assumed, so skip it.

Req: Give recorded AUC(0-t). CC[C@@H]1CN(C(=O)NCC(F)(F)F)C[C@@H]1c1cnc2cnc3[nH]ccc3n12
Resp: 722

====

test: Pharmacokinetics in rat; format: in vivo; details: male, Sprague-Dawley, plasma; rat M, oral 100 mg/kg/day, Day 29, mean (SD)
recorded-metric: AUC at 29 days (ng·h/mL)
State just the number; it will be interpreted in ng·h/mL.

Req: Give AUC at 29 days for CC[C@@H]1CN(C(=O)NCC(F)(F)F)C[C@@H]1c1cnc2cnc3[nH]ccc3n12
Resp: 40800

====

assay: Human PK, single ascending dose Study M13-401; assay type: in vivo; details: human, in vivo; single oral 48 mg, mean ± SD
recorded-metric: AUC(0-inf) (µg·h/mL)
Enter your answer as a number in µg·h/mL; do not include the unit.

Req: Give recorded AUC(0-inf). CC[C@@H]1CN(C(=O)NCC(F)(F)F)C[C@@H]1c1cnc2cnc3[nH]ccc3n12 [Compound 1]
Resp: 1.03

====

test: Pharmacokinetics in rat; assay type: in vivo; details: male, Sprague-Dawley, rat, plasma, po, 100 mg/kg/day, rat M, oral 100 mg/kg/day, Day 1, mean (SD)
recorded-metric: Cmax (ng/mL)
Express it in ng/mL; write the number only.

Req: State its Cmax: CC[C@@H]1CN(C(=O)NCC(F)(F)F)C[C@@H]1c1cnc2cnc3[nH]ccc3n12
Resp: 3910

====

assay: Pharmacokinetics in rat; format: in vivo; settings: female, Sprague-Dawley, rat, plasma, po, 200 mg/kg/day, rat F, oral 200 mg/kg/day, Day 1, mean (SD)
recorded-metric: Cmax (ng/mL)
Write it as a number; the unit ng/mL goes unstated.

Req: Quote Cmax reported for CC[C@@H]1CN(C(=O)NCC(F)(F)F)C[C@@H]1c1cnc2cnc3[nH]ccc3n12 [Compound 1] please.
Resp: 18200

====

assay: Pharmacokinetics in rat; format: in vivo; conditions: male, Sprague-Dawley, plasma; rat M, oral 200 mg/kg/day, Day 1, mean (SD)
recorded-metric: AUC (ng·h/mL)
Respond numerically; units are ng·h/mL and should not be typed.

Req: Retrieve AUC measured for CC[C@@H]1CN(C(=O)NCC(F)(F)F)C[C@@H]1c1cnc2cnc3[nH]ccc3n12 [Compound 1] and print it.
Resp: 50400

====

test: in vivo; conditions: both, beagle, dog, po, 5 mg/kg/day
recorded-metric: AUC at 28 days (ng·h/mL)
Return type: number; implicit unit ng·h/mL.

Req: Hello, please tell me recorded AUC at 28 days for this one: CC[C@@H]1CN(C(=O)NCC(F)(F)F)C[C@@H]1c1cnc2cnc3[nH]ccc3n12 [Compound 1]
Resp: 4100

====

assay: Human PK, single ascending dose Study M13-401; format: in vivo; settings: human, in vivo, oral, 6 mg
recorded-metric: AUC(0-t) (ng·h/mL)
Please respond with the number in ng·h/mL and leave the unit unwritten.

Req: Answer with the recorded AUC(0-t) of CC[C@@H]1CN(C(=O)NCC(F)(F)F)C[C@@H]1c1cnc2cnc3[nH]ccc3n12 only.
Resp: 159

====

test: in vivo; conditions: dog, po, 5 mg/kg, AUC0-∞
recorded-metric: AUC(0-inf) (ng·h/mL)
Please state the figure in ng·h/mL; there is no need to write the unit.

Req: State, in one line, measured AUC(0-inf) of CC[C@@H]1CN(C(=O)NCC(F)(F)F)C[C@@H]1c1cnc2cnc3[nH]ccc3n12
Resp: 5310

====

assay: 6-month (26 weeks) GLP chronic oral toxicity study in rats; assay type: in vivo, rat; conditions: male, in vivo, po; rat 20 mg/kg/day, males; read-out: AUC0-24 at NOAEL
recorded-metric: AUC(0-t) (ng·h/mL)
Field format: number, assumed ng·h/mL, no unit text.

Req: Identify AUC(0-t) associated with the compound CC[C@@H]1CN(C(=O)NCC(F)(F)F)C[C@@H]1c1cnc2cnc3[nH]ccc3n12 [Compound 1]
Resp: 3830

====

assay: Pharmacokinetics in rat; type: in vivo; conditions: plasma; rat, IV 0.3 mg/kg single dose; read-out: Vss
recorded-metric: Vd
State the value with its unit after it.

Req: // Input: CC[C@@H]1CN(C(=O)NCC(F)(F)F)C[C@@H]1c1cnc2cnc3[nH]ccc3n12 [Compound 1] . Output its Vd only.
Resp: 2.7 L/kg

====

assay: Human PK in healthy Japanese and Chinese subjects, Study M13-543; format: in vivo; details: human, plasma, oral, Japanese, Chinese, and Western healthy subjects; read-out: terminal t1/2
recorded-metric: half-life

Req: Determine from records and report half-life for CC[C@@H]1CN(C(=O)NCC(F)(F)F)C[C@@H]1c1cnc2cnc3[nH]ccc3n12
Resp: 420 to 570 min
